Biological target: SIX1 homeodomain (reference allele) (human, UniProt Q15475 108-198)
Sequence: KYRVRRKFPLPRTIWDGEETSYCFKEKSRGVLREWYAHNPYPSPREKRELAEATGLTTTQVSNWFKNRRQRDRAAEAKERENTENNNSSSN
Test: universal protein binding microarray; Universal all-10-mer PBM (8x60K, AMADID 030236), 300 nM GST-tagged protein, Alexa Fluor 488 anti-GST; buffer, salt, pH and temperature not stated (as in Berger); high values mean tight binding
Conditions: protein: ivt; tags: N-terminal GST; dsDNA, one strand shown
Whole data set: some 33,000 sequences, median “e-score” near -0.053, cut for the highest 2% near 0.38. Shown is part of a subset that was picked to be rich in the highest values.
Binary call on binding signal: criterion met from 0.3 E-score upward, criterion not met beneath that.

INSERT INTO assay_data (biopolymer_sequence, class_name) VALUES
  ('GGATTCGA', 'criterion not met'),
  ('ATCGGGGC', 'criterion not met'),
  ('CTCATATC', 'criterion met'),
  ('GAGATATA', 'criterion met'),
  ('CGCATATC', 'criterion met'),
  ('GAGATATC', 'criterion met');

query: Determine whether measured binding signal meets or exceeds 0.3 E-score for "GATCGAGC"
result: criterion not met

query: Determine whether measured binding signal meets or exceeds 0.3 E-score for "ATCTGGGA"
result: criterion not met

query: Determine whether measured binding signal meets or exceeds 0.3 E-score for "CGGGACAC"
result: criterion not met

query: Determine whether measured binding signal meets or exceeds 0.3 E-score for "CGGACACC"
result: criterion met

query: Determine whether measured binding signal meets or exceeds 0.3 E-score for "CCCATCCG"
result: criterion not met

query: Determine whether measured binding signal meets or exceeds 0.3 E-score for "CAGACACC"
result: criterion not met

query: Determine whether measured binding signal meets or exceeds 0.3 E-score for "CCCTTGGA"
result: criterion not met

query: Determine whether measured binding signal meets or exceeds 0.3 E-score for "AGGACACC"
result: criterion met

query: Determine whether measured binding signal meets or exceeds 0.3 E-score for "CAGATATG"
result: criterion met

query: Determine whether measured binding signal meets or exceeds 0.3 E-score for "GAGAGATC"
result: criterion not met

query: Determine whether measured binding signal meets or exceeds 0.3 E-score for "ATGACACC"
result: criterion met

query: Determine whether measured binding signal meets or exceeds 0.3 E-score for "CTGACACC"
result: criterion met

query: Determine whether measured binding signal meets or exceeds 0.3 E-score for "ATGACACG"
result: criterion not met
